Quick reference for Cell viability, Phototoxicity against AsPC-1 among some compounds
system: AsPC-1 pancreatic cancer cells; experiment: Phototoxicity (PDT), MTT assay, AsPC-1; format: cell-based; settings: 50 μM photosensitizer, 3 h, 50 mW 0.09 J/cm^2 laser 100 sec, 72 h incubation
recorded_metric: Cell viability, Phototoxicity against AsPC-1 (%)

>  <compound>
C=Cc1c(C)c2cc3nc(c(CC(=O)O)c4[nH]c(cc5nc(cc1[nH]2)C(C)=C5CC)c(C)c4C(=O)O)[C@@H](CCC(=O)O)[C@@H]3C

>  <numeric_readout>
17.52

$$$$
>  <compound>
C=Cc1c(C)c2cc3nc(c(CC(=O)OC)c4[nH]c(cc5nc(cc1[nH]2)C(C)=C5CC)c(C)c4C(=O)NCCCOCCOCCOCCCNC(=O)CCCC(=O)Oc1ccc(/C=C/C(=O)CC(=O)/C=C/c2ccc(O)c(OC)c2)cc1OC)[C@@H](CCC(=O)OC)[C@@H]3C [Compound 16, Chlorine e6-curcumin Conjugate (16)]

>  <numeric_readout>
27.83

$$$$
>  <compound>
C=Cc1c(C)c2cc3nc(c(CC(=O)OC)c4[nH]c(cc5nc(cc1[nH]2)C(C)=C5CC)c(C)c4C(=O)NCCCCCCNC(=O)CCCC(=O)Oc1ccc(/C=C/C(=O)CC(=O)/C=C/c2ccc(O)c(OC)c2)cc1OC)C(CCC(=O)OC)C3C (centres unmarked) [Compound 10, Chlorine e6-curcumin Conjugate (10)]

>  <numeric_readout>
23.17

$$$$
>  <compound>
C=Cc1c(C)c2cc3nc(c(CC(=O)OC)c4[nH]c(cc5nc(cc1[nH]2)C(C)=C5CC)c(C)c4C(=O)NCCCNC(=O)CCCC(=O)Oc1ccc(/C=C/C(=O)CC(=O)/C=C/c2ccc(O)c(OC)c2)cc1OC)C(CCC(=O)OC)C3C (centres unmarked) [Compound 7, Chlorine e6-curcumin Conjugate (7)]

>  <numeric_readout>
6.63

$$$$
>  <compound>
C=Cc1c(C)c2cc3nc(c(CC(=O)OC)c4[nH]c(cc5nc(cc1[nH]2)C(C)=C5CC)c(C)c4C(=O)NCCOCCOCCNC(=O)CCCC(=O)Oc1ccc(/C=C/C(=O)CC(=O)/C=C/c2ccc(O)c(OC)c2)cc1OC)C(CCC(=O)OC)C3C (centres unmarked) [Compound 13, Chlorine e6-curcumin Conjugate (13)]

>  <numeric_readout>
6.58

$$$$
